Molecular target: T1, human CCR8 (human, UniProt P51685 1-355)
T1 construct: also called hCCR8; CC chemokine receptor 8
Test: flow cytometry, hCCR8-transfected CHO-K1 cells
observable: % positive cells (%)
Answers are plain numbers, in %.

Ref #1 (antibody, human IgG1, V domains shown, Benchmark; cloned into vectors encoding heavy and light chains of human IgG1, produced in CHO; also called TPP-21360 of WO 2021/260210) VH: EVQLLESGGGLVQPGGSLRLSCAASGFTFSSYGMHWVRQAPGKGLEWVSAINWNGGSTGYADSVKGRFTISRDNSKNTLYLQMNSLRAEDTAVYYCARGHHSGYDGRFFDYWGQGTLVTVSS VL: QSVLTQPPSVSGAPGQRVTISCTGSSSNIGAGYNVHWYQQLPGTAPKLLIYTNNRRPSGVPDRFSGSKSGTSASLAISGLRSEDEADYYCAAWDASLSGWVFGGGTKLTVL
75.1
anti-CCR8 mAb 1-9 (antibody, V domains shown, Murine hybridoma mAb) VH: EVQLVESGGGLVQPKGSLKLSCAASGFTFNAYAMNWVRQAPGKGLEWLARIRSKSNNYATYYADSVKDRFTISRDDSQSMFYLQMNNLKSEDTAMYYCVRGREAYYRYDGGYYAMDYWGQGTSVTVSS VL: EIVMTQAALSAPVTPGESVSMSCRSSKSLLHSNGNTYLYWFLQRPGQSPQLLIYRMSNLASGVPDRFSGSGSGTAFTLRISRVEAEDVGVYYCMQHLEYPFTFGSGTKLEIK
81.8

// for each binder in input: emit % positive cells
1. anti-CCR8 mAb 1-7 (antibody, V domains shown, Murine hybridoma mAb) VH: QVHLVETGGGLVRPGNSLKLSCVTSGFTLSNYRMHWLRQPPGKRLEWIAVIKVKSDNYGANYAESVKGRFTISRDDAKSSVYLQMNRLREEDTATYYCSRPDGFSPFVYWGQGTLVTVSA VL: DIKMTQSPSSMYASLGERVTITCKASQDINSYLSWFQQKPGKSPKTLIYRANRLVDGVPSRFSGSGSGQDYFLTISSLEYEDMGIYYCLQYGEFPPTFGAGTKLELK
2. anti-CCR8 mAb 1-1 (antibody, V domains shown, Murine hybridoma mAb) VH: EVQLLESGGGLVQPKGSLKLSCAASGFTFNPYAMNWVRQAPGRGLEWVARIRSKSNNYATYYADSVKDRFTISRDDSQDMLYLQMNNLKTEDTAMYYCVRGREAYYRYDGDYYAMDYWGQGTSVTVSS VL: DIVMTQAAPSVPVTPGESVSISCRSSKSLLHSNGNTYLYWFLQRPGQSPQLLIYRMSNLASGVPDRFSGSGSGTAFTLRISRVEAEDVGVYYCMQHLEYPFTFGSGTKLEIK

1: 71.3; 2: 72.8

The recorded % positive cells for anti-CCR8 mAb 1-12 (antibody, V domains shown, Murine hybridoma mAb) VH: EVQLVETGGGLVQPKGSLKLSCAASGFTFNANAMNWVRQAPGKGLEWVARIRSKSNNYATYYADSVKDRFTISRDDSQSMLYLQMNNLKTEDTAMYYCVRGSDNYIFYAMDYWGQGTSVTVSS VL: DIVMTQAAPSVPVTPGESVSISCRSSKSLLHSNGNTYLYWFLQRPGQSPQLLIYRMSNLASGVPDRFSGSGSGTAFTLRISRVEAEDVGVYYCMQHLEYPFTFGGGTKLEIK is 67.8
